measurement-notes: Pharmacokinetics after single-dose intragastric administration in beagle dogs
Format: in vivo
reported-conditions: both sexes, dog, plasma, po, S-IG 1.25 mg/kg, read-out: Vss/F
readout-kind: Vd/F (L/kg)
Output spec: scalar in L/kg, unitless text.

Entry CC1(C)OC2CC(=O)OCC23C1C/C(=N\OCCN1CCOCC1)C1(C)C3CC[C@@]2(C)[C@H](c3ccoc3)OC(=O)C3OC312 (stereo partly shown) : reported Vd/F = ? 35.3

====

measurement-notes: Plasma protein binding, rat plasma
Assay type: in vitro ADME
reported-conditions: 400 ng/mL, mean, read-out: plasma protein binding rate (converted)
readout-kind: fraction unbound at 400 ng/mL
# print the numeric value only

Entry CC1(C)OC2CC(=O)OCC23C1C/C(=N\OCCN1CCOCC1)C1(C)C3CC[C@@]2(C)[C@H](c3ccoc3)OC(=O)C3OC312 (stereo partly shown) : reported fraction unbound at 400 ng/mL = ? 0.211

====

measurement-notes: Pharmacokinetics after repeated-dose intragastric administration in rats
Type: in vivo, Sprague Dawley rats
reported-conditions: male, Sprague Dawley, rat, plasma, po, 6.5 mg/kg, male rats, R-IG 6.5 mg/kg, 28 days; read-out: AUC0-tn
readout-kind: AUC (ng·h/mL)
Output spec: scalar in ng·h/mL, unitless text.

Entry CC1(C)OC2CC(=O)OCC23C1C/C(=N\OCCN1CCOCC1)C1(C)C3CC[C@@]2(C)[C@H](c3ccoc3)OC(=O)C3OC312 (stereo partly shown) : reported AUC = ? 55

====

measurement-notes: Pharmacokinetics after single-dose intravenous administration in beagle dogs
Type: in vivo
reported-conditions: both sexes, dog, plasma, S-IV 1.25 mg/kg
readout-kind: Cmax (ng/mL)
Output spec: scalar in ng/mL, unitless text.

Entry CC1(C)OC2CC(=O)OCC23C1C/C(=N\OCCN1CCOCC1)C1(C)C3CC[C@@]2(C)[C@H](c3ccoc3)OC(=O)C3OC312 (stereo partly shown) : reported Cmax = ? 1200

====

measurement-notes: Pharmacokinetics after single-dose intragastric administration in beagle dogs
Assay type: in vivo
reported-conditions: both sexes, dog, plasma, po, S-IG 5 mg/kg
Experimental: Male and female beagle dogs were administered low (1.25 mg/kg), medium (2.5 mg/kg) and high (5 mg/kg) doses of HY-071085 by gastric gavage, and blood samples were collected from the forelimb vein at various time points before and 8 h after administration in order to analyze the concentration of HY-071085 in the plasma. […] According to the obtained plasma concentration time data, the pharmacokinetic parameters were calculated using Phoenix WinNonlin 8.1 software. […]
readout-kind: AUC(0-inf) (ng·h/mL)
Output spec: scalar in ng·h/mL, unitless text.

Entry CC1(C)OC2CC(=O)OCC23C1C/C(=N\OCCN1CCOCC1)C1(C)C3CC[C@@]2(C)[C@H](c3ccoc3)OC(=O)C3OC312 (stereo partly shown) : reported AUC(0-inf) = ? 610

====

measurement-notes: Pharmacokinetics after repeated-dose intragastric administration in beagle dogs
Assay type: in vivo
reported-conditions: both sexes, dog, plasma, po, R-IG 2.5 mg/kg, 7 d, read-out: Vss/F
readout-kind: Vd/F at 7 d (L/kg)
Output spec: scalar in L/kg, unitless text.

Entry CC1(C)OC2CC(=O)OCC23C1C/C(=N\OCCN1CCOCC1)C1(C)C3CC[C@@]2(C)[C@H](c3ccoc3)OC(=O)C3OC312 (stereo partly shown) [HY-071085] : reported Vd/F at 7 d = ? 3.04

These entries and their values trace back to paper PMC9316000.
